Known TGI of a selection of compounds
System: UO-31 renal
Experiment: NCI tumour cell line growth inhibition, 48 h

As a guide, the following entries are already answered.
>  <cpd_smiles>
COc1ccc(N=N/C(=N/NC(=O)c2ccccc2)c2ccc(N(CCC#N)CCC#N)cc2C)cc1

>  <TGI>
> 100 µM

$$$$
>  <cpd_smiles>
COc1cccc(N(CN2CC=CC2=O)C(C)=O)c1

>  <TGI>
> 100 µM

$$$$

Attention now shifts to the item below.
IN: Given the entry `N#CCc1ncc(-c2ccc(C(F)(F)F)cc2)c(NC2CCCCCC2)n1` , report its measured TGI.
OUT: > 10 µM

* * *

Test system: HS 578T breast
Experiment: NCI tumour cell line growth inhibition, 48 h
Known TGI of a selection of molecules

As a guide, the following entries are already answered.
>  <cpd_smiles>
O=C(OCc1ccccc1)C1(N2CN(C3(C(=O)OCc4ccccc4)CCCC3)CN(C3(C(=O)OCc4ccccc4)CCCC3)C2)CCCC1

>  <TGI>
> 10 µM

$$$$
>  <cpd_smiles>
C=CCNC(=O)NC1=CSC2=NC(=O)C3(NN12)c1ccccc1-c1ccccc13

>  <TGI>
> 10 µM

$$$$
>  <cpd_smiles>
Cc1cn(CC2=NCC(C)(C)N2)c(=O)[nH]c1=O

>  <TGI>
> 100 µM

$$$$

IN: Given the entry `CNC(=O)c1cc(NC(=O)N(CCC#N)CCN(C(=O)N[C@@H](Cc2ccccc2)C(=O)N[C@@H](CC(C)C)C(=O)NC)c2ccccc2)ccc1OC` , report its measured TGI.
OUT: > 100 µM

IN: Given the entry `c1ccc(-n2nnnc2-c2cccc3ccccc23)cc1` , report its measured TGI.
OUT: > 100 µM
